- TESTED SYSTEM: Human CARM1 (PRMT4) (Homo sapiens, UniProt Q86X55)
- Sequence (Q86X55 2-585 isoform Q86X55-1): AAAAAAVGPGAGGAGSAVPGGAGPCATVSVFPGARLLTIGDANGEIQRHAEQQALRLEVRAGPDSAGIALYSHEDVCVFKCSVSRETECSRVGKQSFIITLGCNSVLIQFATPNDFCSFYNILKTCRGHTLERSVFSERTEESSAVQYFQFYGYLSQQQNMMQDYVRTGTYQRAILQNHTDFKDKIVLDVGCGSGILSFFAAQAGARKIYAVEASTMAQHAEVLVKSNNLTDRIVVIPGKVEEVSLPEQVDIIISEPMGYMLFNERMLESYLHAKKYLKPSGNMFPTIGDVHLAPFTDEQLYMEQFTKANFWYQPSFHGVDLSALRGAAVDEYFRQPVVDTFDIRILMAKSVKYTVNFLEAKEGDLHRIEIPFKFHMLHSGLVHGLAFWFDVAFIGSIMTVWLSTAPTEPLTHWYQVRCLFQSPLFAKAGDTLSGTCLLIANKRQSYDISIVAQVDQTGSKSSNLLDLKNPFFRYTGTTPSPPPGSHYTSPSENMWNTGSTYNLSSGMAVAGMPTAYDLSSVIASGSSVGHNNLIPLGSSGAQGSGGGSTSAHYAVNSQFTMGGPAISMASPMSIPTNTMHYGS
Reported log10 IC50 values follow for various compounds
Field: value | Transform: log10 | Quantity: IC50 | Unit: nM

// known answers, use as guide
COMPOUND	TESTED SYSTEM	log10 IC50
CNCCN(C)Cc1cccc(-c2cc(Oc3ccccc3)c3cnn(C(C)C)c3n2)c1 [Compound 45]	Human CARM1 (PRMT4) (Homo sapiens, UniProt Q86X55)	1.92
CN1CCN(C(=O)c2cccc(Cn3ncc4ccc(-c5ccc(CNCCN)cc5)cc43)c2)CC1 [Compound 335]	Human CARM1 (PRMT4) (Homo sapiens, UniProt Q86X55)	3.55
CC(C)n1ncc2c(C(=O)N[C@@H](C)c3ccccc3)cc(-c3cccc(CN(C)CCN)c3)cc21 [Compound 10]	Human CARM1 (PRMT4) (Homo sapiens, UniProt Q86X55)	1.66
Cc1cc(C)c(CNC(=O)c2cncc(-c3ccc(CNCCN)cc3)c2)c(=O)[nH]1 [Compound 379]	Human CARM1 (PRMT4) (Homo sapiens, UniProt Q86X55)	3.82
COc1nc(C)cc(C)c1CNC(=O)c1cc(-c2cccc(CN(C)CCN(C)C)c2)nc2c1cnn2C(C)C [Compound 386]	Human CARM1 (PRMT4) (Homo sapiens, UniProt Q86X55)	2.32

-- ask Please give the measured log10 IC50 for this compound: CNCCN(C)Cc1cccc(-c2cc(C(=O)NCCCCCC(=O)NCC3CCOCC3)c3cnn(C(C)C)c3n2)c1 [Compound 112]
-- reply 1.38

The reported measurements were obtained from patent US20170280720A1.
